Test system: THP-1 macrophages
procedureText: Effect of compounds on host cell viability (MTT)
Format: cell-based
experimentalConditions: read-out: 24h LC50; THP1 macrophages, 24-hour incubation, MTT assay (Supplemental Table 2)
quantityName: CC50

# compound, targetUnderTest, obsValue
data = [
    ("Cc1cc(C(F)(F)F)nn1-c1ccc(Br)cc1 [Compound 275]", "THP-1 macrophages", "> 50 µM"),
    ("FC(F)(F)c1cc(-c2ccncc2)n(-c2ccc(Br)cc2)n1 [Compound 213]", "THP-1 macrophages", "> 50 µM"),
    ("Fc1cccc(CN2CCC(Nc3ccc(-n4cc(C(F)(F)F)nc4-c4ccc(-c5ccc(C(F)(F)F)cc5)cc4)cc3)C2)c1 (stereo not drawn) [Compound 243]", "THP-1 macrophages", "> 50 µM"),
    ("NC(=O)CNc1ccc(-n2cc(C(F)(F)F)nc2-c2ccc(C(F)(F)F)cc2)cc1 [Compound 405]", "THP-1 macrophages", "> 50 µM"),
    ("FC(F)c1cc(-c2ccc(-c3ccc(C(F)(F)F)cc3)cc2)n(-c2ccc(Br)cc2)n1 [Compound 279]", "THP-1 macrophages", "> 50 µM"),
    ("FC(F)(F)c1cn(-c2ccc(Br)cc2)c(-c2ccc(-c3ccccc3)cc2)n1 [Compound 81]", "THP-1 macrophages", "> 50 µM"),
]
